For each of the molecules below, state its viability at 10 µM.
- Tested on: SK-MEL-28
- Test description: Cytotoxicity against human SK-MEL-28 cells assessed as cell viability at 10 uM incubated for 48 hrs by sulforhodamine B assay relative to control
- Format: functional
- Experimental conditions: read-out: Activity
Write your answer as a measured quantity: the number, then the unit.

input_smiles=Cc1ccc(S(=O)(=O)NCCCNc2nccc(-c3c(-c4cccc(F)c4)nc4sccn34)n2)cc1 assay_system=SK-MEL-28 measurement_name="viability at 10 µM" reported_value=106%

Hey, can you go through the list below and give me viability at 10 µM for every item?
1. O=S(=O)(NCCCNc1nccc(-c2c(-c3cccc(F)c3)nc3sccn23)n1)c1ccc(C(F)(F)F)cc1
2. O=S(=O)(NCCCNc1nccc(-c2c(-c3cccc(F)c3)nc3sccn23)n1)c1ccccc1

Result:
1: 116%; 2: 83.4%

###

- Test system: CCRF-CEM
- Test description: Cytotoxicity against human CCRF-CEM cells assessed as cell viability at 10 uM incubated for 48 hrs by sulforhodamine B assay relative to control
- Format: functional
- Experimental conditions: read-out: Activity
In plain terms, low viability at 10 µM, meaning strictly below 70%, gives satisfied, and everything else gives not satisfied.

# count of solved cases: 5
input_smiles=O=S(=O)(NCCCNc1nccc(-c2c(-c3cccc(F)c3)nc3sccn23)n1)c1ccc(O)cc1 assigned_category=satisfied
input_smiles=O=S(=O)(NCCCNc1nccc(-c2c(-c3cccc(F)c3)nc3sccn23)n1)c1ccc(Cl)cc1 assigned_category=satisfied
input_smiles=O=C(NCCNc1nccc(-c2c(-c3cccc(F)c3)nc3sccn23)n1)c1ccc(Cl)cc1 assigned_category=satisfied
input_smiles=O=S(=O)(NCCNc1nccc(-c2c(-c3cccc(F)c3)nc3sccn23)n1)c1ccc(Br)cc1 assigned_category=satisfied
input_smiles=Cc1ccc(S(=O)(=O)NCCCNc2nccc(-c3c(-c4cccc(F)c4)nc4sccn34)n2)cc1 assigned_category=satisfied

Ask: Report whether reported viability at 10 µM is lower than 70% (strictly) for `O=S(=O)(NCCCNc1nccc(-c2c(-c3cccc(F)c3)nc3sccn23)n1)c1cccc2ccccc12`
Result: satisfied

Ask: Report whether reported viability at 10 µM is lower than 70% (strictly) for `O=S(=O)(NCCNc1nccc(-c2c(-c3cccc(F)c3)nc3sccn23)n1)c1ccc(Cl)cc1`
Result: satisfied

Ask: Report whether reported viability at 10 µM is lower than 70% (strictly) for `O=S(=O)(NCCNc1nccc(-c2c(-c3cccc(F)c3)nc3sccn23)n1)c1cccc(F)c1`
Result: satisfied

###

- System: NCI-H23
- Test description: Cytotoxicity against human NCI-H23 cells assessed as cell viability at 10 uM incubated for 48 hrs by sulforhodamine B assay relative to control
- Assay type: functional
- Experimental conditions: read-out: Activity
In plain terms, low viability at 10 µM, meaning strictly below 80%, gives label 1, and everything else gives label 0.

Ask: Report whether reported viability at 10 µM is lower than 80% (strictly) for `O=C(NCCCNc1nccc(-c2c(-c3cccc(F)c3)nc3sccn23)n1)c1ccc(C(F)(F)F)cc1`
Result: label 0

Ask: Report whether reported viability at 10 µM is lower than 80% (strictly) for `O=C(NCCNc1nccc(-c2c(-c3cccc(F)c3)nc3sccn23)n1)c1ccc(Cl)cc1`
Result: label 1

Ask: Report whether reported viability at 10 µM is lower than 80% (strictly) for `O=C(NCCCNc1nccc(-c2c(-c3cccc(F)c3)nc3sccn23)n1)c1ccc(F)cc1`
Result: label 0

Ask: Report whether reported viability at 10 µM is lower than 80% (strictly) for `O=S(=O)(NCCNc1nccc(-c2c(-c3cccc(F)c3)nc3sccn23)n1)c1ccccc1`
Result: label 1

Ask: Report whether reported viability at 10 µM is lower than 80% (strictly) for `O=S(=O)(NCCNc1nccc(-c2c(-c3cccc(F)c3)nc3sccn23)n1)c1ccc(Br)cc1`
Result: label 1
